Data provenance is the Human Domainome abundance scans (Beltran et al. 2025).

B1: Zinc finger MYM-type protein 2, residues 463 to 506; numbered along this chain, Q9UBW7 (parent)
chain: IMNCCEQCGEYLPSKGAGNNVLVIDGQQKRFCCQSCVSEYKQVG

variants of: B1; experiment: abundance fitness (aPCA) (normalised: wild type 0, dead -1); higher = more abundant; growth selection in yeast, the domain comes from the species named; conditions: Homo sapiens
Quick list: abundance fitness per entry.
Reply with the value as a number alone.

Example entries begin here.
{"columns": ["Variant Designation", "Observed"],
 "data": [
  ["Y40C", 0.429],
  ["Q42S", -0.023],
  ["Q7L", -0.226]
]}

Let's switch to this variant now.
Prompt: What abundance fitness value was documented for this variant, S14C ?
Completion: -0.072
